These entries and their values trace back to the supplement of paper PMC6757056.

B1: library; a variant is named by its letters at N, in order (parent)
chain: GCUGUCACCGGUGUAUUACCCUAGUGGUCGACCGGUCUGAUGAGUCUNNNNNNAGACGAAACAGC

Variants of: B1
Assay: FACS-Seq fitted mean relative fluorescence mCherry/BFP with ligand (log10 relative fluorescence); ligand: hypoxanthine (xanthine aptamer); ligand concentration (+) FACS-Seq: 5 mM; higher = higher reporter protein expression
Conditions: HEK293T, ligand present: yes
Class boundaries, taken from values of FACS-Seq fitted mean (log10), are as follows: bottom (below 0.4), middle (0.4 to below 0.6), top (0.6 or more)

The entry to classify is AUUUAA ; which class holds it?
top

Moving on to AUAAAC
middle

Record: GCAAGA
bottom

Lookup ACUAAC
bottom

How about this variant: AUGUUG
bottom

Param item: ACCGCC
top

Likewise for UACAGA ?
bottom

Also check CGUGCU
middle

Queued: UUGGCG
top

Try the variant AAUAUG
middle

What do you have for GGCGGA ?
middle

Can you handle AUGACA next?
bottom

Cool, now GACAGU
bottom

Moving on to the next variant: GAGAAA
top

Repeat for the following variant: AAAAGU
bottom

Another variant: GGGUGG
bottom

Query UACAGC next
top

Would you mind doing GGUAAA as well?
middle

Entry CUAGUG please
bottom

And for AAACCG ?
top

Another: AGCGGG
top

Repeat with GAAUGC
middle

Another variant: GGUAAU
bottom

Please give the result for GCAGAG too.
middle

Could you do the same for ACAGGU , please?
top

Same again, this time with UACCGA
middle

Do the same for CUAGAC please
bottom

Now this one: CAUACG
middle

Note, next up: GGUGAC
middle

Then this variant: CUUGCU
middle

Repeat with AAGAGU
top

One more variant: AGCCGA
middle

Request: GAAAUA
bottom

One more variant: UAUGGC
bottom

Please give the result for AUCAUA too.
middle

Now the variant ACCGGG
middle

Now this one: CGAUGG
top

Okay, and CCUGCG ?
bottom

Next: CCGUGG
top

Would you kindly repeat that for GUUUAG ?
top

// next record GGAAAA
bottom

Please answer likewise for ACAUUC
middle

Another variant to check: GCAGCC
middle
